target: human recombinant Btk (Homo sapiens); construct: purchased Invitrogen Corporation; assay: Human Recombinant Btk Enzyme Assay; format: biochemical; details: human recombinant Btk 1 nM, ATP 20 μM, 60 min at room temperature; read-out: IC50 for Inhibition of Btk
Sequence (Q06187 whole entry): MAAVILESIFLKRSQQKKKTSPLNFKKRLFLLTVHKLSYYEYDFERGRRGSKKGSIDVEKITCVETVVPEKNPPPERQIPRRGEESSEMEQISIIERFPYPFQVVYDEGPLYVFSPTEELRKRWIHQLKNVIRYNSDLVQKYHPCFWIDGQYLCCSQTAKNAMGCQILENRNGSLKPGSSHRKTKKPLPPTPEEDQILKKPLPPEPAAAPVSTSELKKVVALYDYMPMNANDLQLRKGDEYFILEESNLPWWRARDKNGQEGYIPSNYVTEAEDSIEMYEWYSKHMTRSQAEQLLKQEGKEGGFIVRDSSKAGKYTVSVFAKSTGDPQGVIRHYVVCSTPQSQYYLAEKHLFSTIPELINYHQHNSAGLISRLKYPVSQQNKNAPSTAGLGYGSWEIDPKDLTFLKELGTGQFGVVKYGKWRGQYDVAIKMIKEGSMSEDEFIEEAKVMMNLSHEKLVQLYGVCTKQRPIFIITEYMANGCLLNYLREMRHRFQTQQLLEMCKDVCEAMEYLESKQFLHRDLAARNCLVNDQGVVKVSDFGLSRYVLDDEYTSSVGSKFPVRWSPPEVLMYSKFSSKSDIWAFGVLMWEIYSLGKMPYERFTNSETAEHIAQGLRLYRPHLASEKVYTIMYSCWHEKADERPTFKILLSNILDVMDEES
Counter-ions that a name gives are not always drawn.
attribute.measured: pIC50
The value called pIC50 is obtained by taking minus log10 of the concentration in mol/L.

Q: Could you share which pIC50 value was measured for Cc1ccc(C(=O)Nc2cccc(-c3ccc(C(N)=O)c4[nH]c5cc(C(=O)N6CCN(C)CC6)ccc5c34)c2C)cc1 [Example 5-58, TFA salt] ?
A: 8.66

Q: Could you do the same for Cc1c(-c2ccc(C(N)=O)c3[nH]c4c(c23)CCC(C(=O)N(C)C2CCN(C)CC2)C4)cccc1N1Cc2ccc(C(F)(F)F)cc2C1=O (stereo not drawn) [Example 3-130] , please?
A: 8.70

Q: Then Cc1c(-c2ccc(C(N)=O)c3[nH]c4cc(NC(=O)C(C)(C)C)ccc4c23)cccc1N1Cc2cc(F)ccc2C1=O [Example 66-34] ?
A: 7.80

Q: Try the compound Cc1c(NC(=O)C2(c3ccc(F)cc3)CC2)cccc1-c1ccc(C(N)=O)c2[nH]c3cc(C(=O)N4CCN(C)CC4)ccc3c12 [Example 5-42]
A: 7.82

Q: Then CCOc1ccc2ccccc2c1-c1ccc(C(N)=O)c2[nH]c3cc(C(=O)N4CCN(C)CC4)ccc3c12 [Example 3-18] ?
A: 5.57

Q: Also need Cc1c(NC(=O)c2ccc(F)cc2)cccc1-c1ccc(C(N)=O)c2[nH]c3cc(NC(=O)CCCN4CCOCC4)ccc3c12 [Example 57-16] , thanks.
A: 8.68

Q: Moving on to the next compound: NC(=O)c1ccc(-c2ccccc2F)c2c1[nH]c1ccc(Oc3ccccc3)cc12 [Example 48-2]
A: 5.77

Q: Now the same for NC(=O)c1ccc(-c2ccccc2F)c2c3c([nH]c12)CCC(Oc1ccccc1)C3 (stereo not drawn) [Example 47-2]
A: 5.38

Q: And the next one, CN1CCN(C(=O)c2ccc3c(c2)[nH]c2c(C(N)=O)ccc(-c4nccc5ccccc45)c23)CC1 [Example 2-2] ?
A: 5.89

Q: Record: Cc1ccc2c(c1)C(=O)N(c1cccc(-c3ccc(C(N)=O)c4[nH]c5cc(C(O)CO)ccc5c34)c1C)C2 (racemic) [Example 70-5]
A: 8.80

Q: Would you mind doing Cc1c(-c2ccc(C(N)=O)c3[nH]c4cc(O)ccc4c23)cccc1N1Cc2ccccc2C1=O [Example 41-1] as well?
A: 7.80

Q: Thanks! And Cc1c(NC(=O)c2cccnc2)cccc1-c1ccc(C(N)=O)c2[nH]c3cc(C(=O)N4CCN(C)CC4)ccc3c12 [Example 5-7] ?
A: 7.74

Q: // repeat for NC(=O)c1ccc(Br)c2c1[nH]c1cc(NC(=O)OCc3ccccc3)ccc12 [Example 50-3] and report
A: 5.89

Q: Try this compound next: Cc1nc(NC(=O)c2ccccc2)sc1-c1ccc(C(N)=O)c2[nH]c3c(c12)CCC(C(=O)NC1CCOCC1)C3 (stereo not drawn) [Example 5-86]
A: 6.04

Q: Next record, please: Cc1c(-c2ccc(C(N)=O)c3[nH]c4c(c23)CCC(C(=O)N2CCN(C)CC2)C4)cccc1N1Cc2ccccc2C1=O (stereo not drawn) [Example 3-122]
A: 7.74

Q: Next: Cc1c(NC(=O)c2ccc(F)cn2)cccc1-c1ccc(C(N)=O)c2[nH]c3cc(NC(=O)OCc4ccccc4)ccc3c12 [Example 52-1]
A: 6.28

Q: What do you get for CCNC(=O)c1cc2c(-c3ccc(C(N)=O)c4[nH]c5cc(C(=O)N6CCN(C)CC6)ccc5c34)cccc2[nH]1 [Example 2-24] ?
A: 6.10

Q: Now give it for CN1CCN(C(=O)c2ccc3c(c2)[nH]c2c(C(N)=O)ccc(N4CCC[C@@H](NC(=O)Nc5nccs5)C4)c23)CC1 [Example 19-1] too.
A: 7.77

Q: Same for Cc1c(NC(=O)c2ccc(F)cc2)cccc1-c1ccc(C(N)=O)c2[nH]c3cc(NC(=O)[C@H](C)N)ccc3c12 [Example 57-3]
A: 8.68

Q: Same question, CC(=O)NCc1ccc2c(c1)[nH]c1c(C(N)=O)ccc(-c3cccc(N4Cc5ccc(F)cc5C4=O)c3C)c12 [Example 38-2] this time
A: 8.68

Q: Next: Cc1c(NC(=O)c2ccc(F)cc2)cccc1-c1ccc(C(N)=O)c2[nH]c3cc(NC(=O)c4ccc(C#N)cc4)ccc3c12 [Example 57-20]
A: 7.82

Q: Consider next the compound Cc1c(-c2ccc(C(N)=O)c3[nH]c4cc(C(O)CO)ccc4c23)cccc1N1Cc2ccc(F)cc2C1=O (stereo not drawn) [Example 70-10] in the same way.
A: 9.00

Q: Thanks! And Cc1c(NC(=O)c2ccc(F)cc2)cccc1-c1ccc(C(N)=O)c2[nH]c3cc(C(O)CO)ccc3c12 (racemic) [Example 70-2] ?
A: 8.66

Q: Record: Cc1c(-c2ccc(C(N)=O)c3[nH]c4c(c23)CCC(C(C)(C)O)C4)cccc1N1Cc2ccc(C(F)(F)F)cc2C1=O (stereo not drawn) [Example 76-44]
A: 7.74

Q: Also check Cc1ccc2c(c1)C(=O)N(c1cccc(-c3ccc(C(N)=O)c4[nH]c5cc(C(O)COC(=O)C(C)N)ccc5c34)c1C)C2 (stereo not drawn) [Example 83-4]
A: 8.96

Q: Next: Cc1c(-c2ccc(C(N)=O)c3[nH]c4cc(C(O)CO)ccc4c23)cccc1N1Cc2ccc(F)cc2C1=O (racemic) [Example 70-6]
A: 9.10

Q: Here is the next compound: COC(CO)c1ccc2c(c1)[nH]c1c(C(N)=O)ccc(-c3cccc(N4Cc5ccc(C)cc5C4=O)c3C)c12 (racemic) [Example 75-3]
A: 8.96

Source listed as patent US8362065B2.
